B1: Storkhead-box protein 2, residues 64 to 141; numbered along this chain, Q9P2F5 (parent)
chain: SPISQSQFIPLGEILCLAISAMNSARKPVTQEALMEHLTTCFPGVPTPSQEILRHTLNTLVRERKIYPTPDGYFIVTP

variants of: B1; assay: abundance fitness (aPCA) (normalised: wild type 0, dead -1); higher = more abundant; growth selection in yeast, the domain comes from the species named; settings: Homo sapiens
Rule: abundance fitness of -0.1 or more gives 1; anything lower gives -1.

1. SPISQSQFIPLGEILCLAISAMNSARKPVTQEALMEHLTTCFPGVPTPSQEFLRHTLNTLVRERKIYPTPDGYFIVTP [I52F] = 1
2. SPISQSQFIPLGEILCLAISAMNSARKPVTQEALMEHLTTCFPGVPTPSQEIQRHTLNTLVRERKIYPTPDGYFIVTP [L53Q] = -1
3. SPISQSQFIPLGEILCLAISAMNSARKPVTQEALMEHLTTCFPGVPTPSQEILRHTRNTLVRERKIYPTPDGYFIVTP [L57R] = -1
4. SPISQSQFIPLGEILCLAISAMNSARKPVTQEALMEHLTTCFPGVPTPSQEILRHTLNTLTRERKIYPTPDGYFIVTP [V61T] = 1
5. SPISQSQFIPLGEILCLAISAMNSARKPVTKEALMEHLTTCFPGVPTPSQEILRHTLNTLVRERKIYPTPDGYFIVTP [Q31K] = -1
6. SPISQSQFIPLGEILCLAISAMNSARKPVTQEALCEHLTTCFPGVPTPSQEILRHTLNTLVRERKIYPTPDGYFIVTP [M35C] = 1
7. SPISQSQFIPLGEALCLAISAMNSARKPVTQEALMEHLTTCFPGVPTPSQEILRHTLNTLVRERKIYPTPDGYFIVTP [I14A] = 1
8. SPISQSQFIPLGEILCLAISAMNSARKPVTQEALMEHLTTCFPGVPTPSQEILRHTLNTLVRERKIAPTPDGYFIVTP [Y67A] = 1
9. SPISQSQFIPLGEILCLAISAMRSARKPVTQEALMEHLTTCFPGVPTPSQEILRHTLNTLVRERKIYPTPDGYFIVTP [N23R] = -1
10. SPISQSQFIPLGEILCLAISAMNSARKPVTQEALMEHLTTCFPGVPTPSQEILRHTLNTLVRERKIYPTPDGYFIVTF [P78F] = -1
